# system tested: T1, P6A-bN
# T1 chain: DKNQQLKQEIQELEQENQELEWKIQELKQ
# assay protocol: two-hybrid library CCNG1;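 note: natural log of median RNA to DNA barcode read ratio; higher means stronger binding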
readout kind: interaction score

INSERT INTO results (binder, numeric_readout) VALUES
  ('DKNQQLKQENQELEQKIQELKWKIQELKQ [P10A-bN]', -0.522),
  ('DKIQQLKQKNQELKQKNQELKWKIQELKQ [P2A-bN]', -0.329),
  ('DEIQQLEQENQELEQENQELEWEIQELEQ [P1A-bN]', -0.545),
  ('DENQQLEQEIQELEQEIQELEWKNQELKQ [P11A-bN]', -0.465);
